Tgt: PARP2 (Homo sapiens, UniProt Q9UGN5)
Sequence (Q9UGN5 whole entry): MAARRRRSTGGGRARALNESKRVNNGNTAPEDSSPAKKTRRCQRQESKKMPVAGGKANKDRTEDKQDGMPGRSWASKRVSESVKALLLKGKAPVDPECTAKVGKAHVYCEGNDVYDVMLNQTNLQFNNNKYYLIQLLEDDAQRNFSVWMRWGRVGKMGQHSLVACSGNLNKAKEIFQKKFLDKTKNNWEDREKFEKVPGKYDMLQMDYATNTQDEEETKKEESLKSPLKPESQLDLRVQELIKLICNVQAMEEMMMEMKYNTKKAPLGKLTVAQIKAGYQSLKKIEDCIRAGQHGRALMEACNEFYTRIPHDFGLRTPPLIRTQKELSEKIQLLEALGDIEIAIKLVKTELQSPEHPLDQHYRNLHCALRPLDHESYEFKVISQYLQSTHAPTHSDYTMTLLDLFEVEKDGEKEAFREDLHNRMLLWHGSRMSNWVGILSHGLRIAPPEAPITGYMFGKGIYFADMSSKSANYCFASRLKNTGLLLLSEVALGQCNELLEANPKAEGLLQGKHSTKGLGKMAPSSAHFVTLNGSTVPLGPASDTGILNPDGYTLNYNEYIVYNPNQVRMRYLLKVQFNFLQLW
Observable: pIC50
pIC50 is defined as minus the log10 of a concentration measured in mol/L.

Name the reported pIC50 value associated with the compound O=S(=O)(c1cccc2c(O)nccc12)N1CCCNCC1 [compound 4, hydroxyfasudil] 4.45
